- Test system: Hela cell line
- Assay Info: MTT test of inhibiting tumor cell activity, Hela
- Experimental Context: read-out: Cytotoxic activity (IC50, μM) Hela; Hela cells, MTT, 48 h cultivation
Attribute Measured: IC50 (µM)
Respond with the bare value in µM.

1. COc1cc(C2c3cc4c(cc3C(Nc3cc(Cl)c(O)c(Cl)c3)C3COC(=O)C23)OCO4)cc(OC)c1OC (stereo not shown) = 17.6
2. COc1cc(C2c3cc4c(cc3C(Nc3ccccc3Sc3ccccc3N)C3COC(=O)C23)OCO4)cc(OC)c1OC (stereo not shown) = 2.14
3. COc1ccc(NC2c3cc4c(cc3C(c3cc(OC)c(OC)c(OC)c3)C3C(=O)OCC23)OCO4)cc1F (stereo not shown) = 2.57

Qu. Please supply the value of reported IC50 for the item COc1cc(C2c3cc4c(cc3C(Nc3cc(Cl)c(O)c(Cl)c3)C3COC(=O)C23)OCO4)cc(OC)c1O (stereo not shown)
Ans. 14.7
